Entries and their folding stability dG unfold values follow.
# Test: folding stability dG unfold (combined trypsin and chymotrypsin); higher = more stable
Quantity Measured: folding stability dG unfold (kcal/mol)

>>> assay_result("SAGGSAGGSAGGSDNDGAKPPKIKVEIHPVNMPPGDIVVHNDHYVIAFPNGWFFVIRPKSAGGSAGGSAGGS [r4_394_TrROS]")
1.32
>>> assay_result("SAGGSAMMLAKVKIELPNGEIVEIPIEFESLEELEEKIKEKARELFPDIPIEDIKILDIELYSLEESAGGSA [r15_220_TrMRF]")
5.31
>>> assay_result("SAGPKKKVEIDVHIMIPFKSWEDRELMLYYARKFAPYIARELAKQNGLPPGVDEVKVDVNIMIIPPGQMSAG [r5_436_TrROS]")
3.34
>>> assay_result("SAGGSAGGELEELPGLKVVAVFELPGNRRLVLFEAEGGRYLLLVEGEGTRLVPVPEDVSLEELASAGGSAGG [r6_680_TrMRF]")
3.18
>>> assay_result("SAGGSAGGSAKKVVTVPEDATLEEIEELLKSGEKVTVVIHNKETGKTETLEFDSLEELKAASAGGSAGGSAG [r3_362_TrROS_Hall]")
1.53
>>> assay_result("SAGGMKIIKELYDKLPPEVKYFSVPFHYPTGKVEPVKPSPTLSMFEPFNPETGEVDRFVVYRDKIEPLSAGG [r13_803_TrMRF]")
-0.229
>>> assay_result("SAGGMKTLTITLTVRNPATQETLTLTITVPEGMSEEELQALLKQLQELVEALLQLPPPPPPPPPELESAGGS [r16_191_TrROS_Hall]")
4.01
>>> assay_result("SAGGYYIEFRNPNNGNTVTIPPELIEAIKSGDPDKLKKLPPWFRDALDNIDRVEIQPPPPVPPVPPGKSAGG [r13_233_TrROS]")
0.887
>>> assay_result("SMKELVKRIAERFPNFKVKIKPEKTGGKKYRTVRIENPDSGRDMEIVFTKNGDIQIEMPNGRRIPLEDILSA [r9_1176_TrROS]")
1.36
>>> assay_result("SAGGATIELEVLLEDGTLVRVRAELDEDGRLVSVEVEVRRLEPPPPPPPPERTETRVETRTEYRPEESAGGS [r8_270_TrROS_Hall]")
2.95

###

# Test: folding stability dG unfold from trypsin proteolysis; higher = more stable
Entries and their folding stability dG unfold values follow.
Quantity Measured: folding stability dG unfold (kcal/mol)

>>> assay_result("SAGGSAGGKKPPKIKVIYIKADSPEALKKLKIKAKPGDTILIYVDGKLYRLTVIDGKIKIEELPSAGGSAGG [r6_550_TrROS_Hall]")
2.12
>>> assay_result("SAGGSAGGSAMTLRVKITLPDGRELELEIEAETEEEALAALKELIKKLFPEVKEVKIEVEPESAGGSAGGSA [r18_434_TrROS_Hall]")
3.91
>>> assay_result("SAGGSAMPVVELPIGPELYEKIKEAAEAGDPDKVITLPLKLPNGEEVTLVVEADPATPEFRARVELSAGGSA [r15_700_TrMRF]")
-0.683
>>> assay_result("SAGGSAGGSWKIVEIEVQRFPDGMYMVEIRFPDHGMPVTVHIDPPKNKITIYFPNGRSIEIPFSAGGSAGGS [r12_88_TrROS]")
3.26

###

# Test: folding stability dG unfold (combined trypsin and chymotrypsin); higher = more stable
Entries and their folding stability dG unfold values follow.
Quantity Measured: folding stability dG unfold

>>> assay_result("SAGGSAGGSAFIRAEYKLPENKVLEIEIPVPESVLKKMSIEEVKELFKKLGLPDDVKIEFYDESAGGSAGGS [r12_742_TrMRF]")
"1.66 kcal/mol"
>>> assay_result("SAGGSAGGSANVKLKIDLDPGYGYIKIKLEWEDPGTGNKQEMEITIPIPIPPPPPPPANDKKSAGGSAGGSA [r18_361_TrROS]")
"1.93 kcal/mol"
>>> assay_result("SAGGSAPWVTLPIIIMFDSPEQAVEEVKPIFQELFGIKDVNVEEEPMPNGMVFVPIEITIPAENMKSAGGSA [r15_173_TrROS]")
"1.09 kcal/mol"
>>> assay_result("SAGGSAGGKKPPKIKVIYIKADSPEALKKLKIKAKPGDTILIYVDGKLYRLTVIDGKIKIEELPSAGGSAGG [r6_550_TrROS_Hall]")
"3.35 kcal/mol"
>>> assay_result("SAGGSAGGSASSSPVTVETKTLEVEFKDDEIIVKEKVTTKYPNGKTTVTVTTTTIKVDPNLDSAGGSAGGSA [r18_291_JUSTAS]")
"1.34 kcal/mol"
>>> assay_result("SAGGSAGGSKMTVRIDEVHTHKHDGRRYLSVPLRFPDNGKPIDFHIPPDDLKNLKPGEEITIESAGGSAGGS [r12_382_TrROS]")
"< -1 kcal/mol"
>>> assay_result("SAGGSAGGSAGMTISLSDLTKKGDIEKAKEEVEEIKKKNPEPKVEKVSVPPEKNEIYKLESAGGSAGGSAGG [r11_365_JUSTAS]")
"< -1 kcal/mol"
>>> assay_result("SAGGSFWVFVIEISVKFEQYGDPDGNWKFEIEKVDVKITEIIPIPPEMMDKLREAKAEGMEPEEILSAGGSA [r2_327_TrROS]")
"3.09 kcal/mol"
>>> assay_result("SAGGSAGGMVIEFPKEKVEEVKKELLDAGKPDWVIVTDPNDPDIIKIMPKSLAEEKGWKYTPLLSAGGSAGG [r6_710_JUSTAS]")
"2.09 kcal/mol"
>>> assay_result("SAGKLVVPILLEFPPGATLEEAKEAVEEAVEKLKESFPNAPDIEIKLVDVKVFKTEDDRYLVLALIEVGSAG [r5_985_TrMRF]")
"4.55 kcal/mol"
>>> assay_result("SAGGSAGGSAGGEKTIFIPPDNPEKLADEAQKKGLTVEREPNSWLKVNGKKIRIIIMPPSAGGSAGGSAGGS [r10_930_TrROS]")
"< -1 kcal/mol"
>>> assay_result("SAGSGPGETKLVEEVEIDPVGPIKDSNGNPRPIKVVTKKLVEVTILEDGTVEKKVLETVVETLPPDVPLSAG [r5_132_JUSTAS]")
"-0.662 kcal/mol"
>>> assay_result("SAGGSAGGSAGGTIKELAKEAAKKNPGWVPIRIPLPNGNPWKIRVQVDEPGKNRIEIEPSAGGSAGGSAGGS [r10_395_TrROS]")
"< -1 kcal/mol"
>>> assay_result("SAGGSAGGSAGMVFPVDGKEVVIDRGADDALRVTVFGPDGSASEAVFPGKDIPTVLKALSSAGGSAGGSAGG [r11_934_TrMRF]")
"< -1 kcal/mol"
>>> assay_result("SAGGSAGGSDDAVTFTFTSAPTRLLYLDNPKTFPGSATVTLPAGNPDEFRIERFAPDTAELKPSAGGSAGGS [r20_150_TrMRF]")
"< -1 kcal/mol"
>>> assay_result("SAGKKKKIKIKVTIVVPVKTKEDVELMKELAEKFAPELGKETAKKLGLPPEVEEIEVDVNILIVSPEELSAG [r5_436_TrMRF]")
"1.88 kcal/mol"
>>> assay_result("SAGGSAGGSPGNYIIQIEIKFPGRKHTWHVDSPEEALEQLKNDLEKQHPNAPITDVEIEVFPLSAGGSAGGS [r12_429_TrROS]")
"0.556 kcal/mol"
>>> assay_result("SAGGSAGGSAGGSMYRIEIKMPNNPRTIWVPPDELPDDDLEEIAKENFPNIDKIKVWRWSAGGSAGGSAGGS [r4_235_TrROS]")
"< -1 kcal/mol"
>>> assay_result("SAGGSAGGSAGGSPVSPKIVTTDPGPNVITTVYYSPEDGKVLSTSTTVVPPLPPGEILTSAGGSAGGSAGGS [r10_1051_JUSTAS]")
"1 kcal/mol"
>>> assay_result("SAGSMEPGEVLNVTMTFYDTSGNKLGTVNFTFTDEEEAKKKIEELAKEIKEKLNKNVKVTVEINKSPSLSAG [r5_232_JUSTAS]")
"4.76 kcal/mol"
>>> assay_result("SAGGKPVRIRSSNGWPIEINPEDGTIKVEFPGYEVEFEVKEDGTIQFQIRNPKDGKPIMPMTLQIEKSAGGS [r16_760_TrROS]")
"0.98 kcal/mol"
>>> assay_result("SAGGSAGGSAGGMTPIEKEEPHHHMTFTREGDTVSLETFPGSGSIRKTLPSEEEVEKLLSAGGSAGGSAGGS [r10_1104_JUSTAS]")
"0.00761 kcal/mol"
>>> assay_result("SAGGSAGGSAGGKVVKFTRPDGKPVDAKKILSYDPDKPKLYVLVEDEGPVELREVDADKDSAGGSAGGSAGG [r7_236_TrMRF]")
"0.161 kcal/mol"
>>> assay_result("SAGGMITLPIPLEEAEKLLKELTPDGGDVTTTPLGSLDGEVLYEVTITPPETGNTVTVKVLVPKGRGSAGGS [r16_486_JUSTAS]")
"0.0837 kcal/mol"
>>> assay_result("SAGGSAGGSAGMVTVGDTEVVIEKDPNSDKYTVTVTPADGTTETLTFDSEEEVERYIEAKSAGGSAGGSAGG [r11_238_JUSTAS]")
"1.61 kcal/mol"
>>> assay_result("SAGGSAGGSAGGPRPLRRELRIRRRFRFRVLGLEEGEPRPREFEVEVELVLVETRGPGESAGGSAGGSAGGS [r10_118_TrMRF]")
"3.84 kcal/mol"
>>> assay_result("SAGGSAMTVVKVTLKSPSGTTTVTLPAEEWERFLAAPEVSKTWTLTEVVEEEEPPPELDPEAVELGSAGGSA [r15_460_JUSTAS]")
"0.864 kcal/mol"
